Entry source: patent US20200362047A1

molecular target: T1, CD137 on pre-stimulated human CD8+ T cells (human, UniProt Q07011 24-255); experiment: flow cytometry, PMA/ionomycin-stimulated human CD8+ T cells, mean of 2-3 donors
T1 construct: also called pre-stimulated CD8+ cells; primary T cells
T1 sequence (Q07011 24-255 limits assumed): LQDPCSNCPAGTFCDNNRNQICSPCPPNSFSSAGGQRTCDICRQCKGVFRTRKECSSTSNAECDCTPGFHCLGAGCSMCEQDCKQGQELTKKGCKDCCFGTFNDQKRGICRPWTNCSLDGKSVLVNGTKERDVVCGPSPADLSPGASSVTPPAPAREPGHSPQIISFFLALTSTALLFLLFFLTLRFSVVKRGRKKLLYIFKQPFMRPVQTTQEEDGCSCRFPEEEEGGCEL
ASSAY READOUT: pEC50
One number for each entry, as −log10 of the molar value.

Lookup: Looking for the measured pEC50 of Humabody VH 1.1 (VHH, human single VH domain; also called single domain antibody 1.1) VH: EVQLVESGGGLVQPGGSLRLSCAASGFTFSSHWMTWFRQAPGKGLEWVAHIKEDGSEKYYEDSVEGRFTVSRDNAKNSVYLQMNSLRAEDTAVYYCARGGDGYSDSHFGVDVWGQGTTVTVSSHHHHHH , can you help?
Found: 9.66
